Each recorded value in this set is attributed to patent US20210214435A1.

Below, each entry is listed alongside its reported Max. inhibition at 200 nM Fab [%].
- MEASURED_TARGET: T1, mouse GPVI extracellular domain fused at its C-terminus to human IgG1 Fc (GPVI-Fc) (mouse; human)
- T1 construct: also called mGPVI; mouse GPVI-Fc
- T1 sequence (chain, as listed by the source limits assumed): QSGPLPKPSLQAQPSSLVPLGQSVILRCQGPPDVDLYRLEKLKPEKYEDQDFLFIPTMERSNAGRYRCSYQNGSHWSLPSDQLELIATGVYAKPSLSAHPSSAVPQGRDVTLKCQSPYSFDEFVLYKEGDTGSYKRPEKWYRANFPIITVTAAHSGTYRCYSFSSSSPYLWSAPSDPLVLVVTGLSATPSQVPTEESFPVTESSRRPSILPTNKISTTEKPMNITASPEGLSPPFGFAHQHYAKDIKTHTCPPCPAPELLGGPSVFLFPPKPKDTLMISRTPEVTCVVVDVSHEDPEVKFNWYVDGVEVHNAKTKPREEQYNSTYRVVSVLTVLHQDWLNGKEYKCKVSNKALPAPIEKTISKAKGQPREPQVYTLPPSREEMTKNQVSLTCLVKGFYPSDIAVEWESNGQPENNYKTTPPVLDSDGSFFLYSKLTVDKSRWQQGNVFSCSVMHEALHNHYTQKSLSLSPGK
- EXPERIMENT: Competition ELISA (MSD): mouse GPVI-Fc preincubated with Fab, then on coated rat-tail collagen (competitor)
The figure you give is taken to be in %; do not add the unit.

Use these answered entries as a reference point.
Fab #3 comprising a modified heavy chain constant region (Fab, V domains shown, Human Fab from the Ylanthia library; produced in HKB11 cells; also called Fab #3 mod; HC) VH: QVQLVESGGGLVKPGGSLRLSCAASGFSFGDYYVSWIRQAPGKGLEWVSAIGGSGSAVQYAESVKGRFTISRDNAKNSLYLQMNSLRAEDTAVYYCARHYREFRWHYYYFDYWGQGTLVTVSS VL: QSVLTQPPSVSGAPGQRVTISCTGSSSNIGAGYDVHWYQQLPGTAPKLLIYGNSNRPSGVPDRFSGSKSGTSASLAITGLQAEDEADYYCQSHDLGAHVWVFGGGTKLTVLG    99
Fab #2 comprising a modified heavy chain constant region (Fab, V domains shown, Human Fab from the Ylanthia library; produced in HKB11 cells; also called Fab #2 mod; HC) VH: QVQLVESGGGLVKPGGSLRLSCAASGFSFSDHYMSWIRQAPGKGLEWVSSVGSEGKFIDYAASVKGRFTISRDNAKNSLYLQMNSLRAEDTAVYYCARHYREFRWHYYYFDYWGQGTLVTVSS VL: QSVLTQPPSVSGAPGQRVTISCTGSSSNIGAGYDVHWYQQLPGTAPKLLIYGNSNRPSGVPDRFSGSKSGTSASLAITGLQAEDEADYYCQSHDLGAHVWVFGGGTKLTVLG    99
Fab #1 comprising a modified heavy chain constant region (Fab, V domains shown, Human Fab from the Ylanthia library; produced in HKB11 cells; also called Fab #1 mod; HC) VH: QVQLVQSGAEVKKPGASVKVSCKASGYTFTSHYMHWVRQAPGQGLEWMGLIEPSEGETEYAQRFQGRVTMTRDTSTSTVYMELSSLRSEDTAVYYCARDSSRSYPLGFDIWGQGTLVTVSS VL: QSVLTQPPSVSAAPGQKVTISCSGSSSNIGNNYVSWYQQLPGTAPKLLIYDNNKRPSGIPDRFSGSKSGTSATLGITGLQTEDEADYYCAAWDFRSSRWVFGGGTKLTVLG    89

Continue with the next binder.
Lookup: Item Fab #4 comprising a modified heavy chain constant region (Fab, V domains shown, Human Fab from the Ylanthia library; produced in HKB11 cells; also called Fab #4 mod; HC) VH: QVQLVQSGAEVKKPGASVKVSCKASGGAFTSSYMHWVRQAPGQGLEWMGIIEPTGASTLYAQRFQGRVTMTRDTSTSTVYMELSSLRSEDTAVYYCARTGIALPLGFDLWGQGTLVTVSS VL: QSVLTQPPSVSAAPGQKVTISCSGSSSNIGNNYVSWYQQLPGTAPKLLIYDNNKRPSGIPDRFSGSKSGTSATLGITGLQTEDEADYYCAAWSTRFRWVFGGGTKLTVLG has what recorded Max. inhibition at 200 nM Fab [%]?
Found: 87
